// provenance: patent US20240425523A1

Target: EGFR-L858R/C797S (H1975-clone #8 cells) (Homo sapiens, UniProt P00533, C797S/L858R)
Construct: expressed in transfected cells; host or cells: H1975 (endogenous EGFR knocked out, clone #8)
Test: Cell degradation of EGFR, HTRF assay, H1975-clone#8 (L858R/C797S) cells
Format: cell-based
Details: 16 h treatment, maximum percentage of degradation
endpoint: Dmax (%)

molecule | val
Cc1cc2cc(n1)-c1c(C)nn(C)c1OC[C@H]1CC[C@H](C1)CN1/C(=N/C2=O)Nc2ccc(N3CCN(C4CCN(c5cc(F)c([C@H]6CCC(=O)NC6=O)c(F)c5)CC4)C[C@@H]3C)cc21 | 93.9
COC[C@@H]1CN(c2ccc3c(c2)N2CC4CC[C@H](COc5c(c(C(F)(F)F)nn5C)-c5cc(cc(C)n5)C(=O)/N=C/2N3)C4)CCN1C1CCN(c2cc(F)c([C@H]3CCC(=O)NC3=O)c(F)c2)CC1 | 85.7
COCCn1nc(C)c2c1OC[C@H]1CC[C@H](C1)CN1/C(=N/C(=O)c3cc(C)nc-2c3)Nc2ccc(N3CCN(C4CCN(c5cc(F)c([C@H]6CCC(=O)NC6=O)c(F)c5)CC4)[C@@H](COC)C3)cc21 | 88.2
Cc1cc2cc(n1)-c1cnn(C)c1OC[C@H]1CCC(C1)CN1/C(=N/C2=O)Nc2ccc(N3CCC(N4CCC(Oc5cc(F)c([C@H]6CCC(=O)NC6=O)c(F)c5)CC4)CC3)cc21 | 77.3
COC[C@@H]1CN(c2ccc3c(c2)N2C[C@@H]4CCC(COc5c(c(C)nn5C)-c5cc(cc(C)n5)C(=O)/N=C/2N3)C4)CCN1C1CN(C2CCN(c3cc(F)c([C@H]4CCC(=O)NC4=O)c(F)c3)CC2)C1 | 88.3
Cc1cc2cc(n1)-c1c(C)nn(C)c1OC[C@H]1CC[C@H](C1)CN1/C(=N/C2=O)Nc2ccc(N3CCN(C4CCN(c5cc(F)c([C@H]6CCC(=O)NC6=O)c(F)c5)CC4)[C@H](C)C3)cc21 | 88.8
COC[C@H]1CN(c2ccc3c(c2)N2C[C@@H]4CC[C@H](COc5c(c(C)nn5C)-c5cc(cc(C)n5)C(=O)/N=C/2N3)C4)CCN1C1CN(C2CCN(c3cc(F)c([C@H]4CCC(=O)NC4=O)c(F)c3)CC2)C1 | 90.7
COC[C@@H]1CN(c2ccc3c(c2)N2C[C@@H]4CC[C@H](COc5c(c(C)nn5CCO)-c5cc(cc(C)n5)C(=O)/N=C/2N3)C4)CCN1C1CCN(c2cc(F)c([C@H]3CCC(=O)NC3=O)c(F)c2)CC1 | 88
COC[C@H]1CN(c2ccc3c(c2)N2C[C@@H]4CC[C@H](COc5c(cnn5C)-c5cc(cc(C)n5)C(=O)/N=C/2N3)C4)CCN1C1CCN(c2ccc(C3CCC(=O)NC3=O)nc2C)CC1 (stereo partly drawn) | 78.6
COC[C@@H]1CN(c2ccc3c(c2)N2CC4CC[C@H](COc5c(c(C(F)F)nn5C)-c5cc(cc(C)n5)C(=O)/N=C/2N3)C4)CCN1C1CCN(c2cc(F)c([C@H]3CCC(=O)NC3=O)c(F)c2)CC1 | 83
COC[C@@H]1CN(c2ccc3c(c2)N2C[C@@H]4CC[C@H](COc5c(cnn5C)-c5cc(cc(C)n5)C(=O)/N=C/2N3)C4)CCN1CC1CN(c2ccc3c(c2)CN(C2CCC(=O)NC2=O)C3=O)C1 (stereo partly drawn) | 60.9
Cc1cc2cc(n1)-c1cnn(C)c1OC[C@H]1CC[C@H](C1)CN1/C(=N/C2=O)Nc2ccc(N3CCN(C4CCN(c5ccc(OC6CCC(=O)NC6=O)nc5C)CC4)CC3)cc21 (stereo partly drawn) | 78.2
COC[C@@H]1CN(c2ccc3c(c2)N2CC4CC[C@H](COc5c(c(C)nn5C)-c5cc(cc(C)n5)C(=O)/N=C/2N3)C4)CCN1CC1CCN(c2cc(F)c([C@H]3CCC(=O)NC3=O)c(F)c2)CC1 | 81.9
COCCn1nc(C)c2c1OC[C@H]1CC[C@H](C1)CN1/C(=N/C(=O)c3cc(C)nc-2c3)Nc2ccc(N3CCN(C4CCN(c5cc(F)c([C@H]6CCC(=O)NC6=O)c(F)c5)CC4)CC3)cc21 | 89.3
Cc1cc2cc(n1)-c1c(C)nn(C)c1OC[C@H]1CCC(C1)CN1/C(=N/C2=O)Nc2ccc(N3CCN(C4CCN(c5ccc(C6CCC(=O)NC6=O)nc5C)CC4)CC3)cc21 (stereo partly drawn) | 76.6
Cc1cc2cc(n1)-c1cnn(C)c1OC[C@H]1CCC(C1)CN1/C(=N/C2=O)Nc2ccc(N3CCN([C@@H]4CCN(c5ccc(C6CCC(=O)NC6=O)nc5C)CC4(F)F)CC3)cc21 (stereo partly drawn) | 85.2
COc1cc2c(cc1N1CCN(C3CCN(c4cc(F)c([C@H]5CCC(=O)NC5=O)c(F)c4)CC3)CC1)N1C[C@@H]3CC[C@H](COc4c(c(C)nn4C)-c4cc(cc(C)n4)C(=O)/N=C/1N2)C3 | 88.7
Cc1cc2cc(n1)-c1c(C)nn(C)c1OC[C@H]1CC[C@H](C1)CN1/C(=N/C2=O)Nc2ccc(N3CCN(C4CCN(c5cc(F)c([C@H]6CCC(=O)NC6=O)c(F)c5)CC4)C(=O)C3)cc21 | 88.7

---

Listed molecules paired with reported DC50
Biological target: EGFR-L858R/C797S (H1975-clone #8 cells) (Homo sapiens, UniProt P00533, C797S/L858R)
Construct: expressed in transfected cells; host or cells: H1975 (endogenous EGFR knocked out, clone #8)
Assay: Cell degradation of EGFR, HTRF assay, H1975-clone#8 (L858R/C797S) cells
Type: cell-based
Details: 16 h treatment, EGFR degradation

smi | DC50, nM
Cc1cc2cc(n1)-c1c(C)nn(C)c1OC[C@H]1CCC(C1)CN1/C(=N/C2=O)Nc2ccc(N3CCN(C4CCN(c5cc(F)c([C@H]6CCC(=O)NC6=O)c(F)c5)CC4)CC3)cc21 | 1
Cc1cc2cc(n1)-c1c(C)nn(C)c1OC[C@H]1CC[C@H](C1)CN1/C(=N/C2=O)Nc2ccc(N3C[C@H](C)N(C4CCN(c5cc(F)c([C@H]6CCC(=O)NC6=O)c(F)c5)CC4)C[C@@H]3C)cc21 | 7.24
Cc1cc2cc(n1)-c1cnn(C)c1OC[C@H]1CCC(C1)CN1/C(=N/C2=O)Nc2ccc(N3CC(N(C)C4CCN(c5cc(F)c([C@H]6CCC(=O)NC6=O)c(F)c5)CC4)C3)cc21 | 2.3

---

Target: p-EGFR Del19/C797S (H1975-clone #23 cells) (Homo sapiens, UniProt P00533)
Test: Cell p-EGFR inhibition assay, HTRF, H1975-clone#23 (DEL19/C797S) cells
Conditions: 16 h treatment, pEGFR inhibition
Listed compounds paired with reported IC50

compound | IC50, nM
COC[C@H]1CN(c2ccc3c(c2)N2C[C@@H]4CC[C@H](COc5c(c(C)nn5C)-c5cc(cc(C)n5)C(=O)/N=C/2N3)C4)CCN1C1CCN(c2ccc(NC3CCC(=O)NC3=O)cc2C)CC1 (some centres unmarked) [Example 207] | 1.4
COC[C@@H]1CN(c2ccc3c(c2)N2CC4CC[C@H](COc5c(cnn5C)-c5cc(cc(C)n5)C(=O)/N=C/2N3)C4)CCN1C1CCN(c2ccc(C3CCC(=O)NC3=O)nc2C)CC1 (some centres unmarked) [Example 73] | 1
Cc1cc2cc(n1)-c1c(C)nn(C)c1OC[C@H]1CC[C@H](C1)CN1/C(=N/C2=O)Nc2ccc(N3CCN(C4CCN(c5cc(F)c([C@H]6CCC(=O)NC6=O)c(F)c5)CC4)C(=O)C3)cc21 [Example 164] | 0.254
COC[C@@H]1CN(c2ccc3c(c2)N2C[C@@H]4CC[C@H](COc5c(c(C)nn5C)-c5cc(cc(C)n5)C(=O)/N=C/2N3)C4)CCN1C1CCN(c2cc(F)c(C3CCC(=O)NC3=O)nc2C)CC1 (some centres unmarked) [Example 89] | 1.9
Cc1cc2cc(n1)-c1cnn(C)c1OC[C@H]1CC[C@H](C1)CN1/C(=N/C2=O)Nc2ccc(N3CCN(C4CCN(c5ccc(OC6CCC(=O)NC6=O)cc5)CC4)CC3)cc21 (some centres unmarked) [Example 57] | 1.2

---

Target: p-EGFR L858R (BaF3-L858R cells) (Homo sapiens, UniProt P00533, L858R)
Construct: host or cells: BaF3
Test: Cell p-EGFR inhibition assay, HTRF, BaF3-L858R cells
Assay type: cell-based
Details: 16 h treatment, maximum percentage of pEGFR inhibition
Listed compounds paired with reported Imax (%)

compound | Imax (%)
Cc1cc2cc(n1)-c1cnn(C)c1OC[C@H]1CCC(C1)CN1/C(=N/C2=O)Nc2ccc(N3CCN(C4CCN(c5cc(F)c([C@H]6CCC(=O)NC6=O)c(F)c5)CC4)[C@@H](CO)C3)cc21 | 92.6
COC[C@@H]1CN(c2ccc3c(c2)N2C[C@@H]4CC[C@H](COc5c(c(C)nn5C)-c5cc(cc(C)n5)C(=O)/N=C/2N3)C4)CCN1C1CCN(c2cc(F)c(C3CCC(=O)NC3=O)nc2C)CC1 (stereo partly drawn) | 99.7
Cc1cc2cc(n1)-c1c(C)nn(C)c1OC[C@H]1CC[C@H](C1)CN1/C(=N/C2=O)Nc2ccc(N3CCN([C@@H]4CCN(c5ccc(OC6CCC(=O)NC6=O)cc5)C[C@@H]4F)CC3)cc21 (stereo partly drawn) | 98.7
